Target: T1, recombinant human FGF23 (R179Q) (human, UniProt Q9GZV9 25-251)
T1 construct: also called rhFGF23(R179Q); hFGF23(R179Q)
T1 sequence (looked up): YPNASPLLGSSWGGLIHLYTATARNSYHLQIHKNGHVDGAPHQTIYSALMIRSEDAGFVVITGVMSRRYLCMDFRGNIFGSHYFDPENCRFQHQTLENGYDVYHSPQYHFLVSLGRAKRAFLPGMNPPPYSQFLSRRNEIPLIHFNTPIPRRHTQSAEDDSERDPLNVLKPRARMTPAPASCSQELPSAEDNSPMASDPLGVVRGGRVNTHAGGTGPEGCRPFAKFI
Assay: SPR, antibody captured on hIgG chip, rhFGF23(R179Q) analyte
outcomeMeasure: koff
Please don't drop the unit; write it after the number.

Enquiry: Consider the binder UGX175 (antibody, human IgG1, kappa, V domains shown, also called HC:A103S; A103S) VH: QVQLVQSGAEVKKPGASVKVSCKASGYTFTNHYMHWVRQAPGQGLEWMGIINPISGSTSNAQKFQGRVTMTRDTSTSTVYMELSSLRSEDTAVYYCARDIVDSFDFWGQGTMVTVSS VL: AIQLTQSPSSLSASVGDRVTITCRASQGISSALVWYQQKPGKAPKLLIYDASSLESGVPSRFSGSGSGTDFTLTISSLQPEDFATYYCQQFNDYFTFGPGTKVDIKR and give its measured koff.
Return: 9.61e-05 s⁻¹

Enquiry: Next record, please: UGX161 (antibody, human IgG1, kappa, V domains shown, also called HC:S59I) VH: QVQLVQSGAEVKKPGASVKVSCKASGYTFTNHYMHWVRQAPGQGLEWMGIINPISGSTINAQKFQGRVTMTRDTSTSTVYMELSSLRSEDTAVYYCARDIVDAFDFWGQGTMVTVSS VL: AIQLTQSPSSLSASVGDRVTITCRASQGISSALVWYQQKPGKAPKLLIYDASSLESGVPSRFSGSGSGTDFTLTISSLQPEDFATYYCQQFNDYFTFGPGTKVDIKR
Return: 0.000267 s⁻¹
